Values were extracted from patent US7008636B2.

Consider the following compounds; for each one, report its pIC50.
- tgt: recombinant, human protein tyrosine phosphatase (PTP) 1B (hPTP1B) (Homo sapiens, UniProt P18031)
- Sequence (P18031 whole entry): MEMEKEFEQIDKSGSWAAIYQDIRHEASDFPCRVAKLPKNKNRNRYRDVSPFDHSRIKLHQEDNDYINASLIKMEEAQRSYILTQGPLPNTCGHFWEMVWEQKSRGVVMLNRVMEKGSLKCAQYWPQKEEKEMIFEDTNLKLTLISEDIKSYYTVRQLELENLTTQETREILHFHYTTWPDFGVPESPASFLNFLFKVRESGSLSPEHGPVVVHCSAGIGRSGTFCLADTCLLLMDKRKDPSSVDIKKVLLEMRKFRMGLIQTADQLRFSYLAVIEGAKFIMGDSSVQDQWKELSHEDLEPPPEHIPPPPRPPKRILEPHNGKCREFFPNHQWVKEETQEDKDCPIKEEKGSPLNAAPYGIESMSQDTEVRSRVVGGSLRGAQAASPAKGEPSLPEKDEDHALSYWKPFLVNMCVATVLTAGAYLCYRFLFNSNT
- protocol.notes: Inhibition of tri-phosphorylated insulin receptor dodecaphosphopeptide dephosphorylation by hPTP1B
- condition.set: 50 μM IR triphosphopeptide substrate, 5 min preincubation and 5 min reaction at 37° C., malachite green-ammonium molybdate phosphate detection
Answers are plain numbers, as −log10 of the molar value.

Q. Reported pIC50, compound Cc1ccc2c(c1)cc(C)n2CCCCCCCCNC(=O)c1cc(-c2cccc(Cl)c2)c(OCC(=O)O)c(-c2cccc(Cl)c2)c1 : ____
A. 6.88

Q. Fill in the blank: the reported pIC50 of O=C(NCCCCCCCc1ccccc1)c1cc(-c2cccc(C(F)(F)F)c2)c(OCc2ccc(S(=O)(=O)O)cc2)c(-c2cccc(C(F)(F)F)c2)c1 is ____.
A. 7.25

Q. Which measured pIC50 value corresponds to CCCCCCCCOc1cc(-c2cccc(C(F)(F)F)c2)c(OCC(=O)O)c(-c2cccc(C(F)(F)F)c2)c1 ?
A. 6.84

Q. So what does the record say about pIC50 for O=C(O)COc1c(-c2ccc(F)c(Cl)c2)cc(C(=O)NCCCCCCCCc2ccccc2)cc1-c1ccc(F)c(Cl)c1 ?
A. 6.91

For each of the items listed, what is its pIC50?
1. CCCCCCCCCCOc1cc(-c2ccccc2)c(OCC(=O)O)c(-c2ccccc2)c1
2. O=C(NCCCCCCCc1ccccc1)c1cc(-c2cccc(C(F)(F)F)c2)c(OCP(=O)(O)O)c(-c2cccc(C(F)(F)F)c2)c1
3. CCCCCCCCCc1cc(-c2ccccc2)c(OCC(=O)O)c(-c2ccccc2)c1
4. COc1cc(COc2c(-c3cccc(C(F)(F)F)c3)cc(C(=O)NCCCCCCCCc3ccccc3)cc2-c2cccc(C(F)(F)F)c2)ccc1C(=O)O
5. CCCCCCCCCCCCNC(=O)c1cc(-c2cc(Cl)cc(Cl)c2)c(OCC(=O)O)c(-c2cc(Cl)cc(Cl)c2)c1
6. O=C(O)COc1c(-c2cccc(Cl)c2)cc(C(=O)N(C2CCCCC2)C2CCCCC2)cc1-c1cccc(Cl)c1
7. CCCCCCCCCCCCCCCCCCOc1cc(-c2ccccc2)c(OCC(=O)O)c(-c2ccccc2)c1
8. O=C(O)CCCCOc1c(-c2cccc(Cl)c2)cc(C(=O)NCCCCCCCCn2ccc3ccccc32)cc1-c1cccc(Cl)c1

A.
1. 6.81
2. 6.58
3. 6.75
4. 6.99
5. 7.36
6. 6.23
7. 7.62
8. 6.72

Q. Name the reported pIC50 value associated with the compound O=C(O)COc1c(-c2cccc(Cl)c2)cc(C(=O)NCCCCCCOC(=O)Nc2ccc(Oc3ccccc3)cc2)cc1-c1cccc(Cl)c1
A. 6.19
